Data credit: the supplement of paper PMC11208160

The following sequences are shown together with reported recombinant barcode read abundance (log10) values.
- method.description: recombinant barcode read abundance after kanamycin selection (control-corrected) (log10(CPM+1)); higher = more efficient recombination; sequences stand for … in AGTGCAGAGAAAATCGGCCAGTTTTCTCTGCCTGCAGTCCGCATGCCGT…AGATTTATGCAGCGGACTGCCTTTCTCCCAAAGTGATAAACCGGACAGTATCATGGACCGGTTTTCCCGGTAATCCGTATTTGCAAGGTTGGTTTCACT; site = the 11-nt target;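 note: IS621 recombinase and bridge RNA in Escherichia coli cells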
quantity.name: recombinant barcode read abundance (log10)

• GGACGCTCTTGGGTTCTAACCTGTTGCCT (site GGTCGCTCTAG) = 0.113
• ACTTAGACTTGGGTTCTAACCTGTTGCCC (site ACTTAGACTCG) = 0.333
• TAGCCTGCTTGGGTTCTAACCTGTTGCCT (site TAGCCTGCTAG) = 1.35
• ACAAACCCTTGGGTTCTAACCTGTTGCCT (site ACAAAACCTAG) = 0.214
• ACTGTGACTTGGGTTCTAACCTGTTGCCT (site ACTGTCACTAG) = 0.317
• TGATCCACTTGGGTTCTAACCTGTTGCCT (site TGATCCACTAG) = 0.596
• GGCTGTCCTTGGGTTCTAACCTGTTGCGT (site CTAAAAGCTTT) = 0.0937
• CATCGGACTTGGGTTCTAACCTGTTGCAG (site ACATAAGCTAG) = 0.139
• GTCGTCTCTTGGGTTCTAACCTGTTGCCT (site GTCGTCCCTAG) = 0.463
• TCCAACCCTTGGGTTCTAACCTGTTGCAG (site TCCAATCCTCT) = 0.0309
